Some compounds, each annotated with its measured T/C.
- Tested on: P388 leukemia ip, CD2F1 mice, survival T/C
- assayExplanation: NCI In Vivo Anticancer Drug Screen. Data for tumor model P388 Leukemia (intraperitoneal) in CD2F1 (CDF1) mice
- studyConditions: endpoint: median survival time; dose: 50.0 mg/kg/injection; schedule: Q01DX005 (ip); vehicle: saline with Tween-80; higher = longer survival
Inconclusive results and toxic doses are left out.

Below are worked cases with known answers.
CCOc1ccc(CC)cc1Cc1ccc(OC)cc1; 108 % of control
C=CCSCC1Nc2cc(Cl)c(S(N)(=O)=O)cc2S(=O)(=O)N1C (configuration not stated); 100 % of control
O=c1nc2n(CC(O)C(O)C(O)C(O)CO)c3cc(Cl)c(Cl)cc3nc-2c(=O)[nH]1 (configuration not stated); 105 % of control

-- ask For the compound CCCCN(CCCC)CC(O)c1ccc(F)c2ccccc12 (configuration not stated) , give its reported T/C.
-- reply 113 % of control

-- ask For the compound Cc1cc(N=Nc2cc(C)c(NC(=O)c3ccc(NC(=O)c4ccc(N)cc4)cc3)cc2C)ccc1N=Nc1ccc2cc(S(=O)(=O)O)cc(S(=O)(=O)O)c2c1 , give its reported T/C.
-- reply 110 % of control

---

Some compounds, each annotated with its measured T/C.
- Tested on: P388 leukemia ip, CD2F1 mice, survival T/C
- assayExplanation: NCI In Vivo Anticancer Drug Screen. Data for tumor model P388 Leukemia (intraperitoneal) in CD2F1 (CDF1) mice
- studyConditions: endpoint: median survival time; dose: 100.0 mg/kg/injection; schedule: Q04DX003 (ip); vehicle: saline; higher = longer survival
Inconclusive results and toxic doses are left out.

O=C(NO)c1ccncc1; 100 % of control
C[N+](C)(C)CN1C(=O)c2ccccc2C1=O; 104 % of control
CSC1(c2ccccc2NS(=O)(=O)c2ccccc2)SCCS1; 92 % of control
CC(=O)Nc1ccc(N=Nc2c(C)nn(C(=N)N)c2C)cc1; 110 % of control
CCCCCCCCCCCCN1C(=O)[N+](C)(C)N=C1[O-]; 113 % of control

-- ask For the compound C=CCc1ccccc1OC , give its reported T/C.
-- reply 95 % of control

-- ask For the compound CNCC1CCCO1 (stereo unspecified) , give its reported T/C.
-- reply 100 % of control

-- ask For the compound C[C@]12CCC[C@@H](O)[C@H]1O2 , give its reported T/C.
-- reply 104 % of control

-- ask For the compound CC1C/C=C\COC(=O)CC(C)(C)CC1=O (stereo unspecified) , give its reported T/C.
-- reply 99 % of control

-- ask For the compound CCCCC(CC)COP(=O)(CC(CC)CCCC)OCC(CC)CCCC (stereo unspecified) , give its reported T/C.
-- reply 113 % of control

-- ask For the compound NC(=O)c1c(Cl)cccc1Cl , give its reported T/C.
-- reply 101 % of control

---

Some compounds, each annotated with its measured T/C.
- Tested on: P388 leukemia ip, CD2F1 mice, survival T/C
- assayExplanation: NCI In Vivo Anticancer Drug Screen. Data for tumor model P388 Leukemia (intraperitoneal) in CD2F1 (CDF1) mice
- studyConditions: endpoint: median survival time; dose: 100.0 mg/kg/injection; schedule: Q01DX005 (ip); vehicle: saline with Tween-80; higher = longer survival
Inconclusive results and toxic doses are left out.

C/C(=N\NC(=S)N1CCCCCC1)c1cccc2cccnc12; 103 % of control
CN=C(C#N)c1ccccc1; 98 % of control
Cc1ccc(N)c(C(=O)Nc2ccc(Br)cc2)c1; 101 % of control

-- ask For the compound O=C(Nc1cccc2c1C(=O)c1cccc(Nc3ccc(NC(=O)c4ccccc4)c4c3C(=O)c3ccccc3C4=O)c1C2=O)c1ccccc1 , give its reported T/C.
-- reply 89 % of control

-- ask For the compound O=C(Nc1ccc(S(=O)(=O)Nc2nccs2)cc1)c1ccncc1 , give its reported T/C.
-- reply 102 % of control

-- ask For the compound Cn1c(=O)[nH]c(N)c(NC=O)c1=O , give its reported T/C.
-- reply 101 % of control

---

- Test system: P388 leukemia ip, CD2F1 mice, survival T/C
- assayExplanation: NCI In Vivo Anticancer Drug Screen. Data for tumor model P388 Leukemia (intraperitoneal) in CD2F1 (CDF1) mice
- studyConditions: endpoint: median survival time; dose: 12.5 mg/kg/injection; schedule: Q01DX005 (ip); vehicle: Klucel (hydroxypropylcellulose) (HPC)
- Procedure: The antitumor activity of compounds was measured in mice bearing transplantable tumors. Survival or tumor size were measured and the results are expressed as the measurement made in the treated group (T) divided by the measurement made in the vehicle treated control group (C). The tumor model used in this assay is P388 Leukemia (intraperitoneal) in CD2F1 (CDF1) mice
Toxic doses and inconclusive results are not listed. How the source made its calls: active means survival T/C of 150% or more; inactive means T/C below 125% in these data.
Bench note: report the call from 1 (yes) for active, 0 (no) for inactive

Illustrative cases are given below, each with its answer.
COc1cc([N+](=O)[O-])c(OC)c2c(=O)[nH]c(=O)[nH]c12; 0 (no)
O=C1CCN(C(=O)C2=CC(=O)OC2)C1; 0 (no)
O=C(Nc1ccc(NC2=NCCN2)cc1)c1ccc(C(=O)Nc2ccc(NC3=NCCN3)cc2)c([N+](=O)[O-])c1; 1 (yes)
COc1ccc2c(Cc3ccccc3)c3[n+](cc2c1OC)CCc1cc2c(cc1-3)OCO2; 0 (no)

Now consider the entry below.
-- ask In this assay, the call recorded for COc1cc(/C=C/C(=O)NCCc2c[nH]c3ccc(O)cc23)ccc1O was what?
-- reply 0 (no)

---

- Tested on: P388 leukemia ip, CD2F1 mice, survival T/C
- assayExplanation: NCI In Vivo Anticancer Drug Screen. Data for tumor model P388 Leukemia (intraperitoneal) in CD2F1 (CDF1) mice
- studyConditions: endpoint: median survival time; dose: 100.0 mg/kg/injection; schedule: Q04DX002 (ip); vehicle: Klucel (hydroxypropylcellulose) (HPC); higher = longer survival
Toxic doses and inconclusive results are not listed.
valueType: T/C

COc1ccccc1-n1c(SC)nccc1=O; 100 % of control

-- ask For the compound Nc1ccn(COCCOCc2ccccc2)c(=O)n1 , give its reported T/C.
-- reply 98 % of control

-- ask For the compound CCCCCn1c(Cl)c(C=O)c2ccccc21 , give its reported T/C.
-- reply 97 % of control

-- ask For the compound CN(C)c1ccc(/C=C/C=C2C(=O)NC(=S)NC2=O)cc1 , give its reported T/C.
-- reply 89 % of control

-- ask For the compound O=C(Nc1ccc(C(=O)O)cc1)Nc1ccc(C(=O)O)cc1 , give its reported T/C.
-- reply 99 % of control

---

Some compounds, each annotated with its measured T/C.
- System: P388 leukemia ip, CD2F1 mice, survival T/C
- assayExplanation: NCI In Vivo Anticancer Drug Screen. Data for tumor model P388 Leukemia (intraperitoneal) in CD2F1 (CDF1) mice
- studyConditions: endpoint: median survival time; dose: 100.0 mg/kg/injection; schedule: Q01DX009 (ip); vehicle: Klucel (hydroxypropylcellulose) (HPC); higher = longer survival
Toxic doses and inconclusive results are not listed.

Below are worked cases with known answers.
COc1ccc(C=NC#N)cc1; 93 % of control
Cc1ccc(Cc2nnc(C)c3c(C)[nH]nc23)cc1; 95 % of control
O=C1c2ccccc2S(=O)(=O)N1CCN(CCN1C(=O)c2ccccc2S1(=O)=O)c1ccccc1; 100 % of control
CCn1c(=O)c2[nH]c(Br)nc2n(CCOC)c1=O; 93 % of control
O=C1Nc2ccc(Cl)cc2C(c2ccccc2)=NC1O (configuration not stated); 89 % of control

-- ask For the compound O=C(O)CCC(=O)NCC1CCCC(CNC(=O)CCC(=O)O)C1 (configuration not stated) , give its reported T/C.
-- reply 110 % of control

-- ask For the compound COc1nc(Nc2cccc(F)c2)nc(OC)n1 , give its reported T/C.
-- reply 95 % of control

-- ask For the compound O=c1oc(-c2ccccc2O)ns1 , give its reported T/C.
-- reply 98 % of control

-- ask For the compound COc1nc(Nc2ccccc2OC)nc(OC)n1 , give its reported T/C.
-- reply 99 % of control

-- ask For the compound CC(=O)OCC1OC(n2cc(F)c(=O)[nH]c2=O)C(OC(C)=O)C1OC(C)=O (configuration not stated) , give its reported T/C.
-- reply 88 % of control

-- ask For the compound O=C(O)CCN1c2ccccc2Sc2ccccc21 , give its reported T/C.
-- reply 100 % of control

-- ask For the compound O=C(Nc1ccccc1-c1ccccc1)C(Cl)Cl , give its reported T/C.
-- reply 104 % of control

---

Some compounds, each annotated with its measured T/C.
- System: P388 leukemia ip, CD2F1 mice, survival T/C
- assayExplanation: NCI In Vivo Anticancer Drug Screen. Data for tumor model P388 Leukemia (intraperitoneal) in CD2F1 (CDF1) mice
- studyConditions: endpoint: median survival time; dose: 200.0 mg/kg/injection; schedule: Q01DX005 (ip); vehicle: Klucel (hydroxypropylcellulose) (HPC); higher = longer survival
Inconclusive results and toxic doses are left out.

Below are worked cases with known answers.
CC(C)[C@@H](C)/C=C/[C@@H](C)[C@H]1CC[C@@H]2[C@]1(C)CC[C@H]1[C@]23C=C[C@]2(C[C@@H](O)CC[C@]12C)OO3; 98 % of control
O=C(O)c1cccc2c1C(=O)N(c1ccc3c(c1)Cc1ccccc1-3)C2=O; 96 % of control
CC1CCN(CC#CCN2C(=O)CCC2=O)CC1; 107 % of control
NCCCNC(=O)c1ccccc1N; 100 % of control

Continue with the next compound.
-- ask Check P388 leukemia ip, CD2F1 mice, survival T/C data and give T/C for CCOP(=O)(Nc1ccc2c(c1)Cc1c-2cc(Cl)c(NC(C)=O)c1Cl)OCC .
-- reply 97 % of control
